# assayTarget: NK1 receptor (Cavia porcellus, UniProt P30547)
# Construct: evaluated in guinea pig lungs (Keystone Biologicals, Cleveland, OH); tissue Keystone Biologicals, Cleveland, OH; host or cells: guinea pig lung membranes
# Sequence (P30547 whole entry): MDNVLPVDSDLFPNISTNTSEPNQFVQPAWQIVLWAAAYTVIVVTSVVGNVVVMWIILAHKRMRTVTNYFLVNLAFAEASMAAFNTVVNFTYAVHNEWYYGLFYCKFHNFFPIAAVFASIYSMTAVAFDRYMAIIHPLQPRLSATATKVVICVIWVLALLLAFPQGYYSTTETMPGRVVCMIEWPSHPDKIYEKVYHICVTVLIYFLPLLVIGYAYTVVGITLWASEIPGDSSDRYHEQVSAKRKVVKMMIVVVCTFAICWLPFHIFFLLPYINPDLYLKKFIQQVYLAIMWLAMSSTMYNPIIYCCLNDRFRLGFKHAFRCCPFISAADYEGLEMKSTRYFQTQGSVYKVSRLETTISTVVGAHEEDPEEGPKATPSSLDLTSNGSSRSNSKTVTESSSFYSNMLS
# assayName: Antagonism of iodinated tachykinin binding to NK1 receptors (Example A)
# Design: species or system guinea pig
# appliedConditions: read-out: Tachykinin Receptor Binding NK1 IC50; guinea pig lungs membranes; 0.1 nM 125I-Bolton Hunter Lys-3 labeled substance P; 90 min room temperature; mean of several experiments
pIC50: −log10 of the molar value.
Reported pIC50 is given for each of the following compounds.

>  <sampleSmiles>
COc1cc(C(=O)N2CC[C@](CCN3CCC(C(=O)N4CCN(CC(=O)OCC(=O)N(CCO)CCO)CC4)(c4ccccc4)CC3)(c3ccc(Cl)c(Cl)c3)C2)cc(OC)c1OC

>  <assayTarget>
NK1 receptor (Cavia porcellus, UniProt P30547)

>  <pIC50>
8.57

$$$$
>  <sampleSmiles>
COc1cc(C(=O)N2CC[C@](CCN3CCC(C(=O)N4CCN(CC(=O)OCc5oc(=O)oc5C)CC4)(c4ccccc4)CC3)(c3ccc(Cl)c(Cl)c3)C2)cc(OC)c1OC

>  <assayTarget>
NK1 receptor (Cavia porcellus, UniProt P30547)

>  <pIC50>
8.11

$$$$
>  <sampleSmiles>
COc1cc(C(=O)N2CC[C@](CCN3CCC(C(=O)N4CCN(CC(=O)OCOC(=O)C(C)(C)C)CC4)(c4ccccc4)CC3)(c3ccc(Cl)c(Cl)c3)C2)cc(OC)c1OC

>  <assayTarget>
NK1 receptor (Cavia porcellus, UniProt P30547)

>  <pIC50>
7.67

$$$$
>  <sampleSmiles>
CCN(CC)C(=O)COC(=O)CN1CCN(C(=O)C2(c3ccccc3)CCN(CC[C@]3(c4ccc(Cl)c(Cl)c4)CCN(C(=O)c4cc(OC)c(OC)c(OC)c4)C3)CC2)CC1

>  <assayTarget>
NK1 receptor (Cavia porcellus, UniProt P30547)

>  <pIC50>
8.40

$$$$

###

# assayTarget: NK1 receptor (Cavia porcellus, UniProt P30547)
# Construct: evaluated in guinea pig lungs (Keystone Biologicals, Cleveland, OH); tissue Keystone Biologicals, Cleveland, OH; host or cells: guinea pig lung membranes
# assayName: Antagonism of iodinated tachykinin binding to NK1 receptors (Example A)
# Set-up: species or system guinea pig
Binarize IC50 at 10 nM; below is Y, at or above is N.

>  <compound>
CCOC(=O)C1CCN(C(=O)C2(c3ccccc3)CCN(CC[C@]3(c4ccc(Cl)c(Cl)c4)CCN(C(=O)c4cc(OC)c(OC)c(OC)c4)C3)CC2)CC1 [Example 21.1]

>  <qualitativeLabel>
N

$$$$
>  <compound>
COc1cc(C(=O)N2CC[C@](CCN3CCC(C(=O)N4CCN(CCCC(=O)O)CC4)(c4ccccc4)CC3)(c3ccc(Cl)c(Cl)c3)C2)cc(OC)c1OC [Example 30.2]

>  <qualitativeLabel>
Y

$$$$
>  <compound>
COc1cc(C(=O)N2CC[C@](CCN3CCC(C(=O)N4CCC[C@H]4C(=O)O)(c4ccccc4)CC3)(c3ccc(Cl)c(Cl)c3)C2)cc(OC)c1OC [Example 15.2]

>  <qualitativeLabel>
N

$$$$
>  <compound>
CCOC(=O)C1CN(C(=O)C2(c3ccccc3)CCN(CC[C@]3(c4ccc(Cl)c(Cl)c4)CCN(C(=O)c4cc(OC)c(OC)c(OC)c4)C3)CC2)CCO1 (stereo partly drawn) [Example 25.2]

>  <qualitativeLabel>
N

$$$$
>  <compound>
COc1ccc(-n2cnnn2)cc1C(=O)N1CC[C@](CCN2CCC(C(=O)N3CCN(CC(=O)O)CC3)(c3ccccc3)CC2)(c2ccc(Cl)c(Cl)c2)C1 [Example 11.1]

>  <qualitativeLabel>
N

$$$$
>  <compound>
COc1cc(C(=O)N2CC[C@@](CCN3CCC(C(=O)N4CCN(CC(=O)O)CC4)(c4ccccc4)CC3)(c3ccc(Cl)c(Cl)c3)C2)cc(OC)c1OC [Example 13.3]

>  <qualitativeLabel>
Y

$$$$

###

# assayTarget: NK1 receptor (Cavia porcellus, UniProt P30547)
# Construct: evaluated in guinea pig lungs (Keystone Biologicals, Cleveland, OH); tissue Keystone Biologicals, Cleveland, OH; host or cells: guinea pig lung membranes
# assayName: Antagonism of iodinated tachykinin binding to NK1 receptors (Example A)
# Set-up: species or system guinea pig
# appliedConditions: read-out: Tachykinin Receptor Binding NK1 IC50; guinea pig lungs membranes; 0.1 nM 125I-Bolton Hunter Lys-3 labeled substance P; 90 min room temperature; mean of several experiments
pIC50: −log10 of the molar value.

>  <sampleSmiles>
COc1cc(C(=O)N2CC[C@](CCN3CCC(C(=O)N4CCN(CC(=O)OCC(=O)N(C)CCN(C)C)CC4)(c4ccccc4)CC3)(c3ccc(Cl)c(Cl)c3)C2)cc(OC)c1OC

>  <assayTarget>
NK1 receptor (Cavia porcellus, UniProt P30547)

>  <pIC50>
8.68

$$$$
>  <sampleSmiles>
CCOC(=O)OCOC(=O)CN1CCN(C(=O)C2(c3ccccc3)CCN(CC[C@]3(c4ccc(Cl)c(Cl)c4)CCN(C(=O)c4cc(OC)c(OC)c(OC)c4)C3)CC2)CC1

>  <assayTarget>
NK1 receptor (Cavia porcellus, UniProt P30547)

>  <pIC50>
7.93

$$$$
>  <sampleSmiles>
CCCC(=O)OCOC(=O)CN1CCN(C(=O)C2(c3ccccc3)CCN(CC[C@]3(c4ccc(Cl)c(Cl)c4)CCN(C(=O)c4cc(OC)c(OC)c(OC)c4)C3)CC2)CC1

>  <assayTarget>
NK1 receptor (Cavia porcellus, UniProt P30547)

>  <pIC50>
7.83

$$$$

###

# assayTarget: human jejunal NK2 receptor (Homo sapiens, UniProt P21452)
# Construct: expressed in transfected cells; host or cells: HSKR-1 cells (mouse 3T3 fibroblasts)
# Sequence (P21452 1-398): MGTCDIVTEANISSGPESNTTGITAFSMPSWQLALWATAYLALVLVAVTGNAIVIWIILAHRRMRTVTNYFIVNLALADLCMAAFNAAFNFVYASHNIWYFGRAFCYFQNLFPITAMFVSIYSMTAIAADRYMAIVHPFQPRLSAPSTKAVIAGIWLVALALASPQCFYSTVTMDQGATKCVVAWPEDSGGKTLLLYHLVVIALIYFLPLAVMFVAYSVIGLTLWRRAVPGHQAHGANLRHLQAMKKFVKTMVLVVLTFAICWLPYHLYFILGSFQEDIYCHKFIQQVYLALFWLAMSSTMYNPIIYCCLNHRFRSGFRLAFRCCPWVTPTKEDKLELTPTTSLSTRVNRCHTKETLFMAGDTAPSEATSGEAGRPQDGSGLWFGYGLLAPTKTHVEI
# assayName: Antagonism of iodinated tachykinin binding to NK2 receptors (Example A)
pIC50: −log10 of the molar value.
assayMetric: pIC50

>  <compound>
COc1cc(C(=O)N2CC[C@@](CCN3CCC(C(=O)N4CCN(CC(=O)O)CC4)(c4ccccc4)CC3)(c3ccc(Cl)c(Cl)c3)C2)cc(OC)c1OC [Example 13.3]

>  <assayMetric>
pIC50

>  <val>
8.50

$$$$
>  <compound>
COc1cc(C(=O)N2CC[C@](CCN3CCC(C(=O)N4CCN(CCCC(=O)O)CC4)(c4ccccc4)CC3)(c3ccc(Cl)c(Cl)c3)C2)cc(OC)c1OC [Example 30.2]

>  <assayMetric>
pIC50

>  <val>
8.44

$$$$
>  <compound>
COc1ccc(-n2cnnn2)cc1C(=O)N1CC[C@](CCN2CCC(C(=O)N3CCN(CC(=O)O)CC3)(c3ccccc3)CC2)(c2ccc(Cl)c(Cl)c2)C1 [Example 11.1]

>  <assayMetric>
pIC50

>  <val>
7.15

$$$$
>  <compound>
CCOC(=O)CN1CCN(C(=O)C2(c3ccccc3)CCN(CC[C@]3(c4ccc(Cl)c(Cl)c4)CCN(C(=O)c4cc(OC)c(OC)c(OC)c4)C3)CC2)CC1 [Example 8.3.1]

>  <assayMetric>
pIC50

>  <val>
8.62

$$$$
>  <compound>
CCOC(=O)C1CN(C(=O)C2(c3ccccc3)CCN(CC[C@]3(c4ccc(Cl)c(Cl)c4)CCN(C(=O)c4cc(OC)c(OC)c(OC)c4)C3)CC2)CCO1 (stereo partly drawn) [Example 25.2]

>  <assayMetric>
pIC50

>  <val>
8.19

$$$$
>  <compound>
COC(=O)C1CCCN1C(=O)C1(c2ccccc2)CCN(CCC2(c3ccc(Cl)c(Cl)c3)CCN(C(=O)c3cc(OC)c(OC)c(OC)c3)C2)CC1 (stereo not drawn) [Example 14.1]

>  <assayMetric>
pIC50

>  <val>
8.35

$$$$
>  <compound>
CCOC(=O)CN1CCN(C(=O)C2(c3ccccc3)CCN(CCC3(c4ccc(F)c(F)c4)CCN(C(=O)c4cc(OC)c(OC)c(OC)c4)C3)CC2)CC1 (stereo not drawn) [Example 23.8]

>  <assayMetric>
pIC50

>  <val>
7.93

$$$$
>  <compound>
COc1cc(C(=O)N2CC[C@](CCN3CCC(C(=O)N4CCOC(C(=O)O)C4)(c4ccccc4)CC3)(c3ccc(Cl)c(Cl)c3)C2)cc(OC)c1OC (stereo partly drawn) [Example 26.1]

>  <assayMetric>
pIC50

>  <val>
8.24

$$$$
>  <compound>
CCOC(=O)CCN1CCN(C(=O)C2(c3ccccc3)CCN(CC[C@]3(c4ccc(Cl)c(Cl)c4)CCN(C(=O)c4cc(OC)c(OC)c(OC)c4)C3)CC2)CC1 [Example 27.3]

>  <assayMetric>
pIC50

>  <val>
8.63

$$$$
>  <compound>
CCOC(=O)CN1CCN(C(=O)C2(c3cccnc3)CCN(CC[C@]3(c4ccc(Cl)c(Cl)c4)CCN(C(=O)c4cc(OC)c(OC)c(OC)c4)C3)CC2)CC1 [Example 5.5]

>  <assayMetric>
pIC50

>  <val>
8.60

$$$$
>  <compound>
CCOC(=O)C1CCN(C(=O)C2(c3ccccc3)CCN(CC[C@]3(c4ccc(Cl)c(Cl)c4)CCN(C(=O)c4cc(OC)c(OC)c(OC)c4)C3)CC2)CC1 [Example 21.1]

>  <assayMetric>
pIC50

>  <val>
8.64

$$$$
>  <compound>
COc1cc(C(=O)N2CC[C@](CCN3CCC(C(=O)N4CCN(CC(=O)O)CC4)(c4cccnc4)CC3)(c3ccc(Cl)c(Cl)c3)C2)cc(OC)c1OC [Example 6.1]

>  <assayMetric>
pIC50

>  <val>
7.83

$$$$

The origin of these recorded values is patent EP0946545B1.
